- Tested on: MKL-1
- Method: qHTS assay to identify novel small-molecules to repurpose for Merkel cell carcinoma treatment (AID 1296009); note: nearly all actives have a fitted effect of over 60% in size
- Cond: MCC and control cell lines, CellTiter-Glo viability, 72 h; series mostly up to 46 µM
Inconclusive results are not listed. Activity calls are given as the source filed them. Calls come from the whole dose curve; as a rule, active = well fitted inhibition curve with a large enough effect; inconclusive = small, poorly fitted or top-dose-only effect; inactive = flat fitted curve, though single readings scatter.
Your answer must be one of the following: active, inactive

Incoming: // param item: COc1cc(NS(=O)(=O)c2ccc(N)cc2)ncn1 ; yields the recorded call
Outgoing: inactive

Incoming: Outcome? O=[N+]([O-])c1ccc(/C=N\O)o1
Outgoing: active

Incoming: Answer briefly: the call reported for C[C@@H](O)[C@H]1C(=O)N2C(C(=O)O)=C(S[C@@H]3CN[C@H](CNS(N)(=O)=O)C3)[C@H](C)[C@H]12 in this assay.
Outgoing: inactive

Incoming: Kindly provide the recorded test outcome for the following molecule: CC(O)Cn1cnc2c1c(=O)n(C)c(=O)n2C (stereo unspecified)
Outgoing: inactive

Incoming: What is the recorded call for this molecule in the test? CCC1Nc2cc(Cl)c(S(N)(=O)=O)cc2S(=O)(=O)N1 (stereo unspecified)
Outgoing: inactive

Incoming: GET /call?item= c1ccc(-c2nc[nH]c2-c2ccccc2)cc1 returns the recorded outcome of this test.
Outgoing: inactive
